Data credit: PubChem BioAssay AID1159580

experiment: chemical genetic growth profiling, strain panel (AID 1159580);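 further: tested at 20 µM; growth read once vehicle control cultures reached saturation at 30 °C; 1 = growth at the plate median or of vehicle wells; lower values mean less growth of the strain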; settings: S. cerevisiae deletion strains, growth OD, locus YGR135W, strain pre9, hits give low values
Hit rate of the full screen: of about 5,500 compounds, about 2,000 (36%) were called active. Not shown: some 18% with an inconclusive outcome. This is one part of the list.
reported_property: normalized growth
Form field (numeric): enter value without unit.

molecule: CCC1C2CC3C4N(C)c5ccccc5C45CC(C2C5OC(C)=O)N3C1OC(C)=O (centres undefined)
normalized growth: 1.01

molecule: COc1cc2c3cc1Oc1cc(ccc1O)C[C@@H]1c4c(cc(OC)c(O)c4Oc4ccc(cc4)C[C@@H]3N(C)CC2)CC[N+]1(C)C
normalized growth: 0.989

molecule: CC(C)c1ccc2c(c1O)CC[C@H]1C3=C(CC[C@]21C)C(=O)OC3
normalized growth: 0.953

molecule: CN(C)CC/C=C1/c2ccccc2COc2ccccc21
normalized growth: 1.03

molecule: CC(=O)O[C@@H]1CC2C(C)(C)CCC(=O)[C@]2(C)C2CC[C@@]3(C)[C@H](c4ccoc4)OC(=O)C4OC43[C@@]21C (some centres undefined)
normalized growth: 0.973

According to the records, this molecule CC1(C)O[C@@H]2CC3C4C[C@H](F)C5=CC(=O)C=C[C@]5(C)[C@@]4(F)[C@@H](O)C[C@]3(C)[C@]2(C(=O)CO)O1 (some centres undefined) displays normalized growth of 1.07

Reported normalized growth ( CC(=O)O[C@H]1C[C@@H](O)C(C)(C)C2C[C@@H](OC(C)=O)[C@]3(C)C(CC[C@@]4(C)[C@H](c5ccoc5)OC(=O)C5OC543)[C@]21C (some centres undefined) ) = 1.03

According to the records, this molecule CC(=O)Oc1cc(OC(C)=O)c2c(=O)c(-c3ccccc3)coc2c1 displays normalized growth of 0.985

Item: COc1ccc(-c2cc(=O)c3c(OC(C)=O)cc(OC(C)=O)cc3o2)cc1 | normalized growth: 0.905

response.value for COc1cc(O)c2c(=O)c(-c3ccc(O)cc3)coc2c1 (field: normalized growth) = 0.817

Form field normalized growth, entry O=c1c(-c2cc(O)c(O)c(O)c2)coc2cc(O)c(O)c(O)c12 : 0.917

Per the records, this molecule ( COc1cc2cc[n+]3cc4c(OC)c(OC)ccc4cc3c2cc1OC ) has normalized growth equal to 1

For reference, reported normalized growth for CC1NC(=O)NC1=O (centres undefined) stands at 1.01

Just so you know, measured normalized growth for O=c1c2ccccc2[se]n1-c1ccccc1 came out at 0.0669

get_value(item= NCCc1cccc(O)c1 , readout=normalized growth) returns 0.982

So for CCCCC1C(=O)N(c2ccccc2)N(c2ccccc2)C1=O , the logged normalized growth turned out to be 0.994

Query CN(C)CCC=C1c2ccccc2CCc2ccccc21 yields normalized growth of 0.994

Consider CC(=O)Nc1ccc(OC(=O)c2ccccc2O)cc1 . Its measured normalized growth is 0.847

The recorded normalized growth for entry CC(=O)O[C@H]1C[C@@]2(C)[C@H](c3ccoc3)OC(=O)[C@H]3O[C@]32[C@@]2(C)C1[C@]1(C)C(C[C@H]2OC(C)=O)C(C)(C)[C@H](OC(C)=O)C[C@@H]1OC(C)=O (some centres undefined) equals 1

# normalized growth of COc1c(O)cccc1O = 1.04

Entry under test: C=CCc1ccccc1OCC(O)CNC(C)C (centres undefined) . Its normalized growth was 1.02

The molecule identified as CC(N)Cc1ccc(O)cc1 (centres undefined) registered its normalized growth at 1

Kindly note the recorded normalized growth for COc1c(O)cc2c(-c3ccccc3)cc(=O)oc2c1OC , which is 0.954

So, CC(=O)O[C@@H]1CC2C(C)(C)[C@H](O)C[C@H](O)[C@]2(C)C2CC[C@@]3(C)[C@H](c4ccoc4)OC(=O)[C@H]4O[C@]43[C@@]21C (some centres undefined) ? Its normalized growth was 1.06

Input COc1cc([C@@H]2c3cc4c(cc3[C@H](OC(C)=O)[C@H]3COC(=O)[C@H]23)OCO4)cc(OC)c1OC . Output normalized growth: 0.986

Measured normalized growth, CN1CCOC(c2ccccc2)c2ccccc2C1 (centres undefined) : 1.02

Measured normalized growth, COc1ccc(-c2coc3cc(O)cc(O)c3c2=O)cc1 : 0.314

* * *

Item-by-item account of normalized growth
experiment: chemical genetic growth profiling, strain panel (AID 1159580); conditions: S. cerevisiae deletion strains, growth OD, locus YJR043C, strain POL32, hits give low values
Screen size: about 5,500 compounds; about 2,000 (36%) were called active. Inconclusive results (about 18%) are left out. Some of the results follow.
Lab note: jot the number down without any unit.

Example results:
compound: NS(=O)(=O)c1cc2c(cc1C(F)(F)F)NCNS2(=O)=O
normalized growth: 1.02
--
compound: COc1cc(O)c2c(=O)c(-c3ccc(O)cc3)coc2c1
normalized growth: 0.771
--
compound: O=c1c2ccccc2[se]n1-c1ccccc1
normalized growth: 0.0678
--
compound: C[n+]1cc2c3c(ccc2c2ccc4cc5c(cc4c21)OCO5)OCO3
normalized growth: 0.0783
--
compound: COc1ccc(-c2coc3cc(OC)cc(O)c3c2=O)cc1
normalized growth: 0.911

Continue with the compound presented below.
response.value for C#CCOS(=O)OC1CCCCC1Oc1ccc(C(C)(C)C)cc1 (stereo unspecified) (field: normalized growth) = 1.01

* * *

Each record here notes measured normalized growth.
test: chemical genetic growth profiling, strain panel (AID 1159580);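 further: tested at 20 µM; growth read once vehicle control cultures reached saturation at 30 °C; 1 = growth at the plate median or of vehicle wells; lower values mean less growth of the strain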; details: S. cerevisiae deletion strains, growth OD, locus YOR265W, strain rbl2, hits give low values
The whole screen tested about 5,500 compounds, of which about 2,000 (36%) were called active. Another 18% or so got no clear call; they are omitted. This is one part of the list.
Keep the answer to the number alone.

Worked cases, answers included:
molecule: CN(C)C(=O)Oc1cc(OC(=O)N(C)C)cc(C(O)CNC(C)(C)C)c1 (stereo not drawn)
numeric_result: 1.03
//
molecule: CC[N+]1(C)CCCC(OC(=O)C(O)(c2ccccc2)c2ccccc2)C1 (stereo not drawn)
numeric_result: 1.01
//
molecule: CCN1CCN(c2cc3c(cc2F)c(=O)c(C(=O)O)cn3C2CC2)CC1
numeric_result: 1.01
//
molecule: Cn1nnnc1SCC1=C(C(=O)O)N2C(=O)C(NC(=O)C(O)c3ccccc3)C2SC1 (stereo not drawn)
numeric_result: 0.975
//
molecule: CCn1cc(C(=O)O)c(=O)c2cc(F)c(N3CCNCC3)cc21
numeric_result: 0.983

Lookup result for CC(C)(O)[C@@H]1CC[C@](C)([C@H]2[C@@H](O)C[C@@]3(C)C4C[C@H](O[C@@H]5O[C@H](CO)[C@@H](O)[C@H](O)[C@H]5O)C5C(C)(C)[C@@H](O[C@@H]6OC[C@@H](O)[C@H](O)[C@H]6O)CC[C@@]56C[C@@]46CC[C@]23C)O1 (stereo partly drawn) ; measured normalized growth: 0.993

# molecule CC(C)=CCc1c2c(c(O)c3c(=O)c(O)c(-c4ccccc4)oc13)C=CC(C)(C)O2 ; its normalized growth = 0.699

normalized growth measured on COc1cc([C@@H]2c3cc4c(cc3[C@H](OC(C)=O)[C@H]3COC(=O)[C@H]23)OCO4)cc(OC)c1OC = 1.01

Reported normalized growth ( C=CCCCCCCCCCCCC(O)CC(O)CO (stereo not drawn) ) = 1

response.value for O=c1c(-c2ccc(O)cc2)coc2cc(O)cc(O)c12 (field: normalized growth) = 1.01

* * *

experiment: chemical genetic growth profiling, strain panel (AID 1159580);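 further: tested at 20 µM; growth read once vehicle control cultures reached saturation at 30 °C; 1 = growth at the plate median or of vehicle wells; lower values mean less growth of the strain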; details: S. cerevisiae deletion strains, growth OD, locus YHR030C, strain SLT2, hits give low values
About 2,000 (36%) of roughly 5,500 compounds were called active. Inconclusive results (about 18%) are left out. This is one part of the list.
reported_property: normalized growth
Answer with a number only.

Examples with their reported normalized growth follow.
compound: N/C(=N/OS(=O)(=O)c1ccc(Cl)cc1)c1ccc(C(F)(F)F)cc1
numeric_result: 0.915

compound: Cc1cc(=O)c2c(o1)-c1c(cc(O)c(O)c1C(=O)O)OC2
numeric_result: 1.01

compound: Cc1cc(=O)c2c(O)c3c(cc2o1)OC(C)(C)CC3
numeric_result: 0.992

compound: CCC/C=C/C=C/[C@@H]1C[C@@H](O)[C@@H](O)C(=O)[C@H]1C=O
numeric_result: 0.978

Field normalized growth (entry CC(=O)C1CCC2C3CC=C4CC(OS(=O)(=O)O)CC[C@]4(C)C3CC[C@]12C (stereo not given in full) ) reads 0.973

* * *

experiment: chemical genetic growth profiling, strain panel (AID 1159580);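 further: tested at 20 µM; growth read once vehicle control cultures reached saturation at 30 °C; 1 = growth at the plate median or of vehicle wells; lower values mean less growth of the strain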; settings: S. cerevisiae deletion strains, growth OD, locus YDL134C, strain PPH21, hits give low values
Hit rate of the full screen: of about 5,500 compounds, about 2,000 (36%) were called active. Roughly 18% stayed inconclusive and do not appear here. Some of the results follow.
Response field label: string, one of met (normalized growth strictly below 1) or not met.

smiles_repr: CC1=CCc2c(cc3oc(C)cc(=O)c3c2O)OC1
assigned_label: met
--
smiles_repr: COc1cc([C@@H]2c3cc4c(cc3[C@H](OC(C)=O)[C@H]3COC(=O)[C@H]23)OCO4)cc(OC)c1OC
assigned_label: not met
--
smiles_repr: O=c1c2ccccc2[se]n1-c1ccccc1
assigned_label: met
--
smiles_repr: CC(C)c1ccc2c(c1O)CC[C@H]1C3=C(CC[C@]21C)C(=O)OC3
assigned_label: met

# next molecule below
Req: Would you kindly verify if normalized growth of CC(=O)O.CC(=O)O.[Cd] is strictly less than 1?
Resp: met
